Attribution: patent US8598132B2

Molecular target: PDK1 (Homo sapiens)
Sequence (O15530 1-556): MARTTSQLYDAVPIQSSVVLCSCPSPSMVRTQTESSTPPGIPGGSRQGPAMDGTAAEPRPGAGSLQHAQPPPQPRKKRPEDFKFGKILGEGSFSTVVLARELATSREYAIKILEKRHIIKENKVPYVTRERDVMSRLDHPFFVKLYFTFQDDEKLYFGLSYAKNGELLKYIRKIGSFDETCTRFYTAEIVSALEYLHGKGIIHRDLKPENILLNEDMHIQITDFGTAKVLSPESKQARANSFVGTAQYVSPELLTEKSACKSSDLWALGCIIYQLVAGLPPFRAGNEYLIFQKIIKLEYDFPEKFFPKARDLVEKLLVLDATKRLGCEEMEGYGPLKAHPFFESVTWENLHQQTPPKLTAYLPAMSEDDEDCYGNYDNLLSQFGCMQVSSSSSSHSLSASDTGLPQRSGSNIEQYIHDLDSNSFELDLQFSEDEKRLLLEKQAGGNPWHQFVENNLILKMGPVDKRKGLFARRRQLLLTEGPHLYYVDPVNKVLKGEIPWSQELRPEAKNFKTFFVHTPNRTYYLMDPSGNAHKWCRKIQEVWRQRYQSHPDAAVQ
Assay: LabChip (Caliper) kinase assay, PDK1
Assay type: biochemical
Settings: compound at 10 nM, read-out: remaining kinase activity (in %) / percentage of inhibition
readout.label: inhibition at 0.01 µM

INSERT INTO results (molecule, result) VALUES
  ('C[C@H]1O[C@@H](n2c3ccccc3c3c4c(c5c6ccccc6[nH]c5c32)C(=O)NC4=O)C[C@@H](O)[C@@H]1O', '21%'),
  ('C[C@@H]1O[C@@H](n2c3ccccc3c3c4c(c5c6ccccc6[nH]c5c32)C(=O)NC4=O)C[C@H](O)[C@H]1O', '7%'),
  ('C[C@@H]1O[C@@H](n2c3ccccc3c3c4c(c5c6ccccc6[nH]c5c32)CNC4=O)[C@H](O)[C@H](O)[C@H]1O [formula (XII), N^13-1′-β-L-rhamnosyl-k252c]', '-10%'),
  ('C[C@@H]1O[C@@H](n2c3ccccc3c3c4c(c5c6ccccc6[nH]c5c32)C(=O)NC4=O)[C@H](O)[C@H](O)[C@H]1O', '-6%'),
  ('C[C@@H]1O[C@@H](n2c3ccccc3c3c4c(c5c6ccccc6[nH]c5c32)CNC4=O)C[C@@H](O)[C@H]1O [formula (XIV), N^13-1′-β-L-digitoxosyl-k252c]', '30%'),
  ('C[C@@H]1O[C@@H](n2c3ccccc3c3c4c(c5c6ccccc6[nH]c5c32)CNC4=O)C[C@H](O)[C@H]1O [formula (XIII), N^13-1′-β-L-olivosyl-k252c]', '9%'),
  ('C[C@H]1O[C@@H](n2c3ccccc3c3c4c(c5c6ccccc6[nH]c5c32)CNC4=O)C[C@@H](O)[C@@H]1O [formula (XV), N^13-1′-β-D-olivosyl-k252c]', '3%'),
  ('C[C@@H]1O[C@@H](n2c3ccccc3c3c4c(c5c6ccccc6[nH]c5c32)C(=O)NC4=O)C[C@@H](O)[C@H]1O', '61%');
